Ref: ChEMBL document CHEMBL1201862

Provide the reported EC50 of each item.
System: Streptococcus sp. 'group A'
method-notes: Streptococcus pyogenes SK(-)GAS viability under kanamycin – luminescence, BacTiterGlo, confirmation, counter-screen for streptokinase expression inhibitor project, dose response (AID 1900)
Assay type: functional, organism-based
Active and inactive are the calls of the source. Cut-off read from the data, not from the text of the source: actives have a measured EC50 and inactives only a lower limit.

Input line: What measured EC50 goes with O=C(CN1CCc2ccccc2C1)Nc1ccccc1N1CCCCCC1 ?
Output line: 6.54 µM (active)

Input line: What measured EC50 goes with O=c1c(O)c(-c2cccs2)oc2ccccc12 ?
Output line: 3.69 µM (active)

Input line: What measured EC50 goes with Cc1ccc(O)c(/C=N/NC(=O)Cc2ccc(Cl)cc2)c1 ?
Output line: 3.25 µM (active)

Input line: What measured EC50 goes with CC(C)(C)c1cc(C(=O)NNc2cc(C(F)(F)F)ccc2Cl)n(Cc2ccccc2)n1 ?
Output line: 3.24 µM (active)

Input line: What measured EC50 goes with CC(C)C[C@H](NC(=O)c1[nH]cnc1C(=O)N[C@@H](CC(C)C)C(=O)OC(C)(C)C)C(=O)OCc1ccccc1 ?
Output line: 2.62 µM (active)

Input line: What measured EC50 goes with CC(C)C(C(=O)Nc1nccs1)c1ccc(Cl)cc1 (stereo unspecified) ?
Output line: 12.7 µM (active)
